test.system: RPS6KA4 KD1 (human) (UniProt O75676)
Sequence (O75676 whole entry, looked up): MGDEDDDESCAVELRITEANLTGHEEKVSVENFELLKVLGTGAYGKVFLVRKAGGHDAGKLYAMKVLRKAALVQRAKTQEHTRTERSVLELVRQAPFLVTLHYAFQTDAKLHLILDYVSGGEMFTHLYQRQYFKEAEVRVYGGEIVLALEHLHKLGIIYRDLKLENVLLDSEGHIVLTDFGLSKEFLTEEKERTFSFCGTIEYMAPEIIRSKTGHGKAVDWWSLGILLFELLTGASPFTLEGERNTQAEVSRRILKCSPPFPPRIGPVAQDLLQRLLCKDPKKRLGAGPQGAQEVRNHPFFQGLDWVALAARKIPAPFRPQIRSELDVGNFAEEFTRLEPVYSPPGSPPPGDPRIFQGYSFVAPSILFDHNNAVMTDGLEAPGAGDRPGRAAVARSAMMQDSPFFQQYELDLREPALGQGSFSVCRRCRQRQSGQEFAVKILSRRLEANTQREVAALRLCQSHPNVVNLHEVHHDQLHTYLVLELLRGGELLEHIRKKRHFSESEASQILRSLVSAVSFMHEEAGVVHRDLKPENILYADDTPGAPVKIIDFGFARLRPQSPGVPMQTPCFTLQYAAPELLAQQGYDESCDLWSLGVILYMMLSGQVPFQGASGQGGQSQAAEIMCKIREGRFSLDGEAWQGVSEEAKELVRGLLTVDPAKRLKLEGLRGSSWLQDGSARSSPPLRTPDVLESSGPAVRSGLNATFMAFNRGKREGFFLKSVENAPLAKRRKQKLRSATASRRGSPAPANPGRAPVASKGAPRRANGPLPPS
assay.overview: split-luciferase competition binding
run.conditions: compound 10.0 µM
# Lookup of reported inhibition keyed by entry

Solved cases (3 shown):
Nc1ncnc2[nH]nc(Nc3ccc(F)cc3)c12 :: 0%
O=C(NC(NC(=S)Nc1ccc(F)c([N+](=O)[O-])c1)C(Cl)(Cl)Cl)C(c1ccccc1)c1ccccc1 (stereo unspecified) :: 0%
O=S(=O)(NCCNC/C=C/c1ccc(Br)cc1)c1cccc2cnccc12 :: 10%

Field inhibition (entry CC(C)(C)n1nc(-c2ccc(Cl)cc2)c2c(N)ncnc21 ) reads 0%

Field inhibition (entry CC[C@@H](CO)Nc1nc(NCc2ccccc2)c2ncn(C(C)C)c2n1 ) reads 0%

Field inhibition (entry O=C(c1ccc(Nc2nccc(-c3cc4ccccc4s3)n2)cc1)N1CCC(N2CCCC2)CC1 ) reads 0%

meta.source: the kinase profiling compilation of Christmann-Franck et al. (2016)
